- Tested on: A549 cells
- test_details: MTT cytotoxicity assay, A549
- Assay type: cell-based, human
- details: ratio IC50 hFF3 / IC50 A549
Recorded Selectivity index A549 by entry
Lab note: write the figure by itself, no unit.

Some compounds with recorded Selectivity index A549:
COC(=O)CC[C@@H](C)[C@H]1CC[C@H]2[C@@H]3CC[C@@H]4C[C@H](O)CC[C@]4(C)[C@H]3CC(=O)[C@]12C [Compound 11]    1
COC(=O)CC[C@@H](C)[C@H]1CC[C@H]2[C@@H]3CC[C@@H]4CC(O)(CN5CCOCC5)CC[C@]4(C)[C@H]3CC(=O)[C@]12C (stereo partly drawn) [Compound 10]    1

Now consider the entry below.
Consider the compound shown here: COC(=O)CC[C@@H](C)[C@H]1CCC2[C@@H]3CC[C@@H]4C[C@](O)(CNCCN(C)C)CC[C@]4(C)C3CC(=O)[C@@]21C (stereo partly drawn) [Compound 2] What is its recorded Selectivity index A549?
0.7

* * *

- Test system: panel of cultured cell lines (HuTu-80, HepG2, KB-3-1, A549, RAW264.7, hFF3)
- test_details: MTT cytotoxicity, range over the panel of tested cell lines
- Format: cell-based
- details: 24 h, summary of Table 1 (for 2–10 partly from ref [21])
pIC50: −log10 of the molar value.
Recorded pIC50 by entry

Consider the compound shown here: COC(=O)CC[C@@H](C)[C@H]1CC[C@H]2[C@@H]3CC[C@@H]4CC(O)(CNCCO)CC[C@]4(C)[C@H]3CC(=O)[C@]12C (some centres unmarked) What is its recorded pIC50?
4.46 to 5.36

Please give the result for COC(=O)CC[C@@H](C)[C@H]1CC[C@H]2[C@@H]3CC[C@@H]4CC(O)(CNCCCO)CC[C@]4(C)[C@H]3CC(=O)[C@]12C (some centres unmarked) too.
4.48 to 5.40
